System: human monocyte-macrophages (HMMs)
Measurement protocol: MTT toxicity assay, HMMs, seven days (Example 3)
Type: cell-based
Assay conditions: 100 uM, 7 days, MTT, mean of three experiments
Observation type: Cell viability by MTT, percent of control
Answers are plain numbers.

Below, 3 compounds whose answers are already recorded.
CC(=O)CCCCn1c(=O)c2c(ncn2C)n(C)c1=O: 89.64
O=C1NCCc2c(OCCCCN3CCCCC3)cccc21: 90.94
NC(=O)c1cccc(N)c1 [3-AB, 3-aminobenzamide]: 104.20

The record that follows has no Cell viability by MTT, percent of control shown yet.
Query block: What does the record list as Cell viability by MTT, percent of control for O=C1CCc2cc(OCCCCc3nnnn3C3CCCCC3)ccc2N1 ?
Result block: 77.06

Data credit: patent US10159685B2
